Cited source: ChEMBL document CHEMBL1145025

molecular target: Melanocortin receptor 4 (Homo sapiens); test: In vitro ability to inhibit the binding of alpha [125I]NDP-MSH to the human Melanocortin 4 receptor
REPORTED PROPERTY: log10(IC50) (log10 of the value in µM)
In plain terms, each number is the log10 of measured IC50 in µM.

Here are 3 molecules together with their reported answers.
CC(CN1CCN(CC(c2ccc(F)cc2)N2CCN(C)CC2)CC1)C(=O)c1ccc(Cl)cc1 (centres undefined); -0.75
CN1CCN(C(CN2CCN(CCCc3ccccc3)CC2)c2ccc(F)cc2)CC1 (centres undefined); 0.58
CC(CN1CCN(CC(c2ccc(F)cc2)N2CCN(C3CCCCC3)CC2)CC1)C(=O)c1ccccc1 (centres undefined); -0.79

log10(IC50) in this record for CC(CN1CCN(CC(c2ccc(F)cc2)N2CCN(C)CC2)CC1)C(=O)c1ccc([N+](=O)[O-])cc1 (centres undefined) : 0.18

log10(IC50) in this record for CC(CN1CCN(CC(c2cccc(Cl)c2)N2CCN(C)CC2)CC1)C(=O)c1ccccc1 (centres undefined) : -0.22

log10(IC50) in this record for CCN1CCN(C(CN2CCN(CC(C)C(=O)c3ccccc3)CC2)c2ccc(F)cc2)CC1 (centres undefined) : -0.71

log10(IC50) in this record for CN1CCN(C(CN2CCN(CC3CCc4ccccc4C3=O)CC2)c2ccc(Cl)cc2)CC1 (centres undefined) : 0.51

---

target: Melanocortin receptor 4 (Homo sapiens); assay: In vitro ability to inhibit the binding of [125I]AGRP to the human Melanocortin 4 receptor
REPORTED PROPERTY: IC50 (nM)
Use nM as the unit, but write only the number.

Here are 2 molecules together with their reported answers.
CC(CN1CCN(CC(c2ccc(F)cc2)N2CCN(C)CC2)CC1)C(=O)c1ccc(C(F)(F)F)cc1 (stereo not given); 820
CC(CN1CCN(CC(c2ccc(F)cc2)N2CCN(C)CC2)CC1)C(=O)c1ccc(Cl)cc1 (stereo not given); 266

IC50 in this record for CC(CN1CCN(CC(c2ccc(F)cc2)N2CCN(C)CC2)CC1)C(=O)c1ccc(Cl)c(Cl)c1 (stereo not given) : 364

IC50 in this record for CC(CN1CCN(CC(c2cccc(Cl)c2)N2CCN(C)CC2)CC1)C(=O)c1ccccc1 (stereo not given) : 336

---

Items are presented alongside their recorded IC50.
target: Melanocortin receptor 4 (Homo sapiens, UniProt P32245); test: In vitro ability to inhibit the binding of alpha [125I]NDP-MSH to the human Melanocortin 4 receptor
Sequence (P32245 whole entry): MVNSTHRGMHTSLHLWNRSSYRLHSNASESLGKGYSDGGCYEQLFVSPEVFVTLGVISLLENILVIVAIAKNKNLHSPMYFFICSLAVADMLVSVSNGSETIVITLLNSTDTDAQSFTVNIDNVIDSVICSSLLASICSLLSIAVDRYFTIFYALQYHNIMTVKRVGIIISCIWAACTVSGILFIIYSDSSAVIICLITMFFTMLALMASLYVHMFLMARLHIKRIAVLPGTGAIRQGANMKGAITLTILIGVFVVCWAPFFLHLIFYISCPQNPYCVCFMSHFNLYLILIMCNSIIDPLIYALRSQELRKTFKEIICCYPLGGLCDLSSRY
Use nM as the unit, but write only the number.

Here are 4 compounds together with their reported answers.
CC(CN1CCN(CC(c2ccc(Cl)cc2)N2CCN(C)CC2)CC1)C(=O)c1ccc(Cl)cc1 (stereo not given); 150
COc1ccc(C(=O)C(C)CN2CCN(CC(c3ccc(F)cc3)N3CCN(C)CC3)CC2)cc1 (stereo not given); 597
CC(CN1CCN(CC(c2ccc(F)cc2)N2CCN(c3ccccc3)CC2)CC1)C(=O)c1ccccc1 (stereo not given); 249
CC(CN1CCN(CC(c2ccc(F)cc2)N2CCN(C)CC2)CC1)C(=O)c1ccc(C(F)(F)F)cc1 (stereo not given); 469

Next item in the queue.
IC50 in this record for CC(CN1CCN(CC(c2ccc(F)cc2)N2CCN(C)CC2)CC1)C(=O)c1ccc(Cl)c(Cl)c1 (stereo not given) : 188

---

biological target: Melanocortin receptor 4 (Homo sapiens); assay: In vitro ability to inhibit the binding of [125I]AGRP to the human Melanocortin 4 receptor
Label True when IC50 < 0.3 µM; otherwise False.

Examples with answers:
CCN1CCN(C(CN2CCN(CC(C)C(=O)c3ccccc3)CC2)c2ccc(F)cc2)CC1 (centres undefined); False
CC(CN1CCN(CC(c2ccccc2)N2CCN(C)CC2)CC1)C(=O)c1ccccc1 (centres undefined); False
CC(CN1CCN(CC(c2ccc(F)cc2)N2CCN(C3CCCCC3)CC2)CC1)C(=O)c1ccccc1 (centres undefined); True
CN1CCN(C(CN2CCN(CC3CCc4ccccc4C3=O)CC2)c2ccc(Cl)cc2)CC1 (centres undefined); False
CN1CCN(C(CN2CCN(CCC(=O)c3ccccc3)CC2)c2ccc(F)cc2)CC1 (centres undefined); False
COc1ccc(C(=O)C(C)CN2CCN(CC(c3ccc(F)cc3)N3CCN(C)CC3)CC2)cc1 (centres undefined); False

Input line: Is the reported IC50 for CC(CN1CCN(CC(c2ccc(F)cc2)N2CCN(C)CC2)CC1)C(=O)c1ccc([N+](=O)[O-])cc1 (centres undefined) strictly below 0.3 µM?
Output line: False

Input line: Is the reported IC50 for CC(CN1CCN(CC(c2ccc(F)cc2)N2CCN(c3ccccc3)CC2)CC1)C(=O)c1ccccc1 (centres undefined) strictly below 0.3 µM?
Output line: False

Input line: Is the reported IC50 for CC(CN1CCN(CC(c2ccc(Cl)cc2)N2CCN(C)CC2)CC1)C(=O)c1ccc(Cl)cc1 (centres undefined) strictly below 0.3 µM?
Output line: True

---

target: Melanocortin receptor 4 (Homo sapiens, UniProt P32245); assay: Fold selectivity for AGRP vs NDP-MSH binding was reported
REPORTED PROPERTY: Selectivity
Respond with the number and no other words.

Here are 6 molecules together with their reported answers.
CC(CN1CCN(CC(c2ccc(Cl)cc2)N2CCN(C)CC2)CC1)C(=O)c1ccc(Cl)cc1 (stereo not given); 0.8
CC(CN1CCN(CC(c2ccc(F)cc2)N2CCN(C)CC2)CC1)C(=O)c1ccc(Cl)c(Cl)c1 (stereo not given); 0.5
CC(CN1CCN(CC(c2ccc(F)cc2)N2CCN(C)CC2)CC1)C(=O)c1ccc([N+](=O)[O-])cc1 (stereo not given); 2.5
CCN1CCN(C(CN2CCN(CC(C)C(=O)c3ccccc3)CC2)c2ccc(F)cc2)CC1 (stereo not given); 1.6
COc1ccc(C(=O)C(C)CN2CCN(CC(c3ccc(F)cc3)N3CCN(C)CC3)CC2)cc1 (stereo not given); 0.3
CC(CN1CCN(CC(c2ccc(F)cc2)N2CCN(C3CCCCC3)CC2)CC1)C(=O)c1ccccc1 (stereo not given); 1

Lab note: molecule CC(CN1CCN(CC(c2ccc(F)cc2)N2CCN(c3ccccc3)CC2)CC1)C(=O)c1ccccc1 (stereo not given) tested on Melanocortin receptor 4 (Homo sapiens, UniProt P32245); recorded Selectivity was 0.1

Lab note: molecule CC(CN1CCN(CC(c2ccc(F)cc2)N2CCN(C)CC2)CC1)C(=O)c1ccc(C(F)(F)F)cc1 (stereo not given) tested on Melanocortin receptor 4 (Homo sapiens, UniProt P32245); recorded Selectivity was 0.5

Lab note: molecule CC(CN1CCN(CC(c2cccc(Cl)c2)N2CCN(C)CC2)CC1)C(=O)c1ccccc1 (stereo not given) tested on Melanocortin receptor 4 (Homo sapiens, UniProt P32245); recorded Selectivity was 1.8

Lab note: molecule CC(CN1CCN(CC(c2ccc(F)cc2)N2CCN(C)CC2)CC1)C(=O)c1ccc(Cl)cc1 (stereo not given) tested on Melanocortin receptor 4 (Homo sapiens, UniProt P32245); recorded Selectivity was 0.7
